Recorded fraction unbound at 5 min, 0.1 µM for the following molecules
assay.details: Plasma protein binding (Centrifree ultrafiltration)
Format: in vitro ADME
condition.details: 0.1 uM
Positions of bridges follow the written chain, without caps; N, C: chain ends. Non-standard residues stand in square brackets, D forms with d. Residues, ends and D or L forms follow the SMILES beside them. dPhe(4-Br) = N[C@H](Cc1ccc(Br)cc1)C(=O)O; dAbu = CC[C@@H](N)C(=O)O
measured.property: fraction unbound at 5 min, 0.1 µM

>>> measurement("CC(=O)N[C@@H](CCCN=C(N)N)C(=O)N[C@H]1CSSC[C@H](C(N)=O)NC(=O)[C@H](Cc2c[nH]c3ccccc23)NC(=O)C(CCCN=C(N)N)NC(=O)[C@@H](Cc2ccccc2)NC(=O)[C@H](Cc2cnc[nH]2)NC(=O)[C@@H](C)NC1=O (stereo partly drawn) [CTX-1200, reference compound]")
0.57
>>> measurement("COc1ccc(C[C@H]2NC(=O)[C@H](CCCNC(=N)N)NC(=O)[C@@H](C)NC(=O)[C@@H](NC(=O)[C@H](CCCNC(=N)N)NC(C)=O)CSSC[C@@H](C(N)=O)NC(=O)[C@@H](Cc3c[nH]c4ccccc34)NC(=O)[C@H](CCCNC(=N)N)NC2=O)cc1 [CTX-1238] (Ac-RC[dA]R[dY](Me)R[dW]C-NH2; disulfide 2-8 (inferred))")
0.47
>>> measurement("CC[C@H]1NC(=O)[C@@H](NC(=O)[C@H](CCCNC(=N)N)NC(C)=O)CSSC[C@@H](C(N)=O)NC(=O)[C@@H](Cc2c[nH]c3ccccc23)NC(=O)[C@H](CCCNC(=N)N)NC(=O)[C@@H](Cc2ccc(Br)cc2)NC(=O)[C@H](CCCNC(=N)N)NC1=O [CTX-1247] (Ac-RC[dAbu]R[dPhe(4-Br)]R[dW]C-NH2; disulfide 2-8 (inferred))")
0.51

---

experimental.target: human MC4R (Homo sapiens, UniProt P32245)
Construct: host or cells: HEK-293 cells stably expressing the GScAMP22F split-luciferase cAMP sensor and hMC4R, G418 selection
Sequence (P32245 whole entry): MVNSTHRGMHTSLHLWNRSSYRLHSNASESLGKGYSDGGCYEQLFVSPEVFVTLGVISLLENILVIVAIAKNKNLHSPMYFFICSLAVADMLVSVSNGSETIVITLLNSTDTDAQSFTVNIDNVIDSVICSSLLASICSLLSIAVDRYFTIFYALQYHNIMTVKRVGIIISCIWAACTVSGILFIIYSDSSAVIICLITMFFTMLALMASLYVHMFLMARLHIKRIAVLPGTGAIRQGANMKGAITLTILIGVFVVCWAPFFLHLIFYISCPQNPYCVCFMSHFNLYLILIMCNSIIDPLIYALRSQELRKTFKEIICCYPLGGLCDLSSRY
assay.details: split-luciferase cAMP sensor assay, agonist mode (measurement window 1), hMC4R
Format: cell-based
Positions of bridges follow the written chain, without caps; N, C: chain ends. Non-standard residues stand in square brackets, D forms with d. Residues, ends and D or L forms follow the SMILES beside them. dDip = N[C@@H](C(=O)O)C(c1ccccc1)c1ccccc1; Phe(4-Br) = N[C@@H](Cc1ccc(Br)cc1)C(=O)O; dPhe(4-Br) = N[C@H](Cc1ccc(Br)cc1)C(=O)O; dPhe(4-F) = N[C@H](Cc1ccc(F)cc1)C(=O)O; d2Nal = N[C@H](Cc1ccc2ccccc2c1)C(=O)O; Tic = O=C(O)[C@@H]1Cc2ccccc2CN1; dTic = O=C(O)[C@H]1Cc2ccccc2CN1; Cit = NC(=O)NCCC[C@H](N)C(=O)O; Nle = CCCC[C@H](N)C(=O)O
measured.property: MC4R selectivity vs MC1R

>>> measurement("CC(=O)N[C@@H](CCCNC(=N)N)C(=O)N[C@H]1CSSC[C@@H](C(N)=O)NC(=O)[C@@H](Cc2c[nH]c3ccccc23)NC(=O)[C@H](CCCNC(N)=O)NC(=O)[C@@H](Cc2ccc(Br)cc2)NC(=O)[C@H](CCCNC(=N)N)NC(=O)[C@@H](C)NC1=O [CTX-1253] (Ac-RC[dA]R[dPhe(4-Br)][Cit][dW]C-NH2; disulfide 2-8 (inferred))")
0.57
>>> measurement("CCCC[C@H](NC(=O)[C@H](CCCNC(=N)N)NC(C)=O)C(=O)N[C@H]1CSSC[C@@H](C(N)=O)NC(=O)[C@@H](Cc2c[nH]c3ccccc23)NC(=O)[C@H](CCCNC(=N)N)NC(=O)[C@@H](Cc2ccc(OC)cc2)NC(=O)[C@H](CCCNC(=N)N)NC1=O [CTX-1615] (Ac-R[Nle]CR[dY](Me)R[dW]C-NH2; disulfide 3-8)")
0.26
>>> measurement("CC(=O)N[C@@H](CCCNC(=N)N)C(=O)N[C@H]1CSSC[C@@H](C(N)=O)NC(=O)[C@@H](Cc2c[nH]c3ccccc23)NC(=O)[C@H](CCCNC(=N)N)NC(=O)[C@@H](Cc2ccc(F)cc2)NC(=O)[C@H](CCCNC(=N)N)NC(=O)[C@@H](C)NC1=O [CTX-1236] (Ac-RC[dA]R[dPhe(4-F)]R[dW]C-NH2; disulfide 2-8)")
2.01
>>> measurement("CC(=O)N[C@@H](CCCNC(=N)N)C(=O)N[C@H]1CSSC[C@@H](C(N)=O)NC(=O)[C@@H](Cc2c[nH]c3ccccc23)NC(=O)[C@H](CCCNC(=N)N)NC(=O)[C@@H](C(c2ccccc2)c2ccccc2)NC(=O)[C@H](CCCNC(=N)N)NC(=O)[C@@H](C)NC1=O [CTX-1280] (Ac-RC[dA]R[dDip]R[dW]C-NH2; disulfide 2-8 (inferred))")
0.1
>>> measurement("CC(=O)N[C@@H](CCCNC(=N)N)C(=O)N[C@H]1CSSC[C@@H](C(N)=O)NC(=O)[C@H]2Cc3ccccc3CN2C(=O)[C@H](CCCNC(=N)N)NC(=O)[C@@H](Cc2ccc(Br)cc2)NC(=O)[C@H](CCCNC(=N)N)NC(=O)[C@@H](C)NC1=O [CTX-1256] (Ac-RC[dA]R[dPhe(4-Br)]R[dTic]C-NH2; disulfide 2-8 (inferred))")
0.003
>>> measurement("CC(=O)N[C@@H](CCCNC(=N)N)C(=O)N[C@H]1CSSC[C@@H](C(N)=O)NC(=O)[C@@H](Cc2c[nH]c3ccccc23)NC(=O)[C@@H](CCCNC(=N)N)NC(=O)[C@@H](Cc2ccccc2)NC(=O)[C@H](CCCNC(=N)N)NC(=O)[C@@H](C)NC1=O [CTX-1283] (Ac-RC[dA]R[dF][dR][dW]C-NH2; disulfide 2-8)")
0.03
>>> measurement("CC(=O)N[C@@H](CCCNC(=N)N)C(=O)N[C@H]1CSSC[C@@H](C(=O)N[C@@H](CCCNC(=N)N)C(=O)N[C@@H](Cc2ccccc2)C(=O)NCC(=O)O)NC(=O)[C@@H](Cc2c[nH]c3ccccc23)NC(=O)[C@H](CCCNC(=N)N)NC(=O)[C@@H](Cc2ccc(Br)cc2)NC(=O)[C@H](CCCNC(=N)N)NC(=O)[C@@H](C)NC1=O [CTX-1219] (Ac-RC[dA]R[dPhe(4-Br)]R[dW]CRFG-OH; disulfide 2-8 (inferred))")
1
>>> measurement("CC(=O)N[C@@H](CCCNC(=N)N)C(=O)N[C@H]1CSSC[C@@H](C(N)=O)NC(=O)[C@@H]2Cc3ccccc3CN2C(=O)[C@H](CCCNC(=N)N)NC(=O)[C@@H](Cc2ccc(Br)cc2)NC(=O)[C@H](CCCNC(=N)N)NC(=O)[C@@H](C)NC1=O [CTX-1259] (Ac-RC[dA]R[dPhe(4-Br)]R[Tic]C-NH2; disulfide 2-8 (inferred))")
0.01
>>> measurement("CC(=O)N[C@@H](CCCNC(=N)N)C(=O)N[C@H]1CSSC[C@@H](C(N)=O)NC(=O)[C@@H](Cc2ccc3ccccc3c2)NC(=O)[C@H](CCCNC(=N)N)NC(=O)[C@@H](Cc2ccc(Br)cc2)NC(=O)[C@H](CCCNC(=N)N)NC(=O)[C@@H](C)NC1=O [CTX-1254] (Ac-RC[dA]R[dPhe(4-Br)]R[d2Nal]C-NH2; disulfide 2-8)")
0.26
>>> measurement("CC(=O)N[C@@H](CCCNC(=N)N)C(=O)N[C@H]1CSSC[C@@H](C(N)=O)NC(=O)[C@@H](Cc2c[nH]c3ccccc23)NC(=O)[C@H](CCCNC(=N)N)NC(=O)[C@H](Cc2ccc(Br)cc2)NC(=O)[C@H](CCCNC(=N)N)NC(=O)[C@@H](C)NC1=O [CTX-1215] (Ac-RC[dA]R[Phe(4-Br)]R[dW]C-NH2; disulfide 2-8 (inferred))")
0.07
>>> measurement("CC(=O)N[C@@H](CCCNC(=N)N)C(=O)N[C@H]1CSSC[C@@H](C(N)=O)NC(=O)[C@@H](Cc2c[nH]c3ccccc23)NC(=O)[C@H](CCCNC(=N)N)NC(=O)[C@@H](Cc2ccc(Br)cc2)NC(=O)[C@@H]2CCCN2C(=O)[C@@H](C)NC1=O [CTX-1249] (Ac-RC[dA]P[dPhe(4-Br)]R[dW]C-NH2; disulfide 2-8)")
5.08
